target: sulfite reductase from Saccharomyces cerevisiae (Saccharomyces cerevisiae, UniProt P39692+P47169); construct: Saccharomyces cerevisiae cell was collected by 30 min centrifugation at 4,000×g; made in house; host or cells: endogenous enzyme purified from cultured Saccharomyces cerevisiae cells (not recombinant); experiment: Effects of metal ions, inhibitors and reducing agents on enzyme activity; format: biochemical; conditions: metals 0.5, 1.0, 5.0 and 10.0 mM, 25° C., 30 minutes
Attribute Measured: effect of metal ions on catalytic activity

Example entries begin here.
| Smiles Structure | Measurement |
| --- | --- |
| [Cu+2] | strongly inhibited |
| [Co+2] | partially |
| [Fe+2] | partially |
| [Ba+2] | partially |
| [Zn+2] | strongly inhibited |
| [Hg+2] | strongly inhibited |
| [Ni+2] | partially |

input: // query effect of metal ions on catalytic activity value for entry [Pb+2]
output: strongly inhibited

---

Target: sulfite reductase from Saccharomyces cerevisiae (Saccharomyces cerevisiae, UniProt P39692+P47169)
Construct: Saccharomyces cerevisiae cell was collected by 30 min centrifugation at 4,000×g; made in house; host or cells: endogenous enzyme purified from cultured Saccharomyces cerevisiae cells (not recombinant)
Sequence (P47169 1-1442): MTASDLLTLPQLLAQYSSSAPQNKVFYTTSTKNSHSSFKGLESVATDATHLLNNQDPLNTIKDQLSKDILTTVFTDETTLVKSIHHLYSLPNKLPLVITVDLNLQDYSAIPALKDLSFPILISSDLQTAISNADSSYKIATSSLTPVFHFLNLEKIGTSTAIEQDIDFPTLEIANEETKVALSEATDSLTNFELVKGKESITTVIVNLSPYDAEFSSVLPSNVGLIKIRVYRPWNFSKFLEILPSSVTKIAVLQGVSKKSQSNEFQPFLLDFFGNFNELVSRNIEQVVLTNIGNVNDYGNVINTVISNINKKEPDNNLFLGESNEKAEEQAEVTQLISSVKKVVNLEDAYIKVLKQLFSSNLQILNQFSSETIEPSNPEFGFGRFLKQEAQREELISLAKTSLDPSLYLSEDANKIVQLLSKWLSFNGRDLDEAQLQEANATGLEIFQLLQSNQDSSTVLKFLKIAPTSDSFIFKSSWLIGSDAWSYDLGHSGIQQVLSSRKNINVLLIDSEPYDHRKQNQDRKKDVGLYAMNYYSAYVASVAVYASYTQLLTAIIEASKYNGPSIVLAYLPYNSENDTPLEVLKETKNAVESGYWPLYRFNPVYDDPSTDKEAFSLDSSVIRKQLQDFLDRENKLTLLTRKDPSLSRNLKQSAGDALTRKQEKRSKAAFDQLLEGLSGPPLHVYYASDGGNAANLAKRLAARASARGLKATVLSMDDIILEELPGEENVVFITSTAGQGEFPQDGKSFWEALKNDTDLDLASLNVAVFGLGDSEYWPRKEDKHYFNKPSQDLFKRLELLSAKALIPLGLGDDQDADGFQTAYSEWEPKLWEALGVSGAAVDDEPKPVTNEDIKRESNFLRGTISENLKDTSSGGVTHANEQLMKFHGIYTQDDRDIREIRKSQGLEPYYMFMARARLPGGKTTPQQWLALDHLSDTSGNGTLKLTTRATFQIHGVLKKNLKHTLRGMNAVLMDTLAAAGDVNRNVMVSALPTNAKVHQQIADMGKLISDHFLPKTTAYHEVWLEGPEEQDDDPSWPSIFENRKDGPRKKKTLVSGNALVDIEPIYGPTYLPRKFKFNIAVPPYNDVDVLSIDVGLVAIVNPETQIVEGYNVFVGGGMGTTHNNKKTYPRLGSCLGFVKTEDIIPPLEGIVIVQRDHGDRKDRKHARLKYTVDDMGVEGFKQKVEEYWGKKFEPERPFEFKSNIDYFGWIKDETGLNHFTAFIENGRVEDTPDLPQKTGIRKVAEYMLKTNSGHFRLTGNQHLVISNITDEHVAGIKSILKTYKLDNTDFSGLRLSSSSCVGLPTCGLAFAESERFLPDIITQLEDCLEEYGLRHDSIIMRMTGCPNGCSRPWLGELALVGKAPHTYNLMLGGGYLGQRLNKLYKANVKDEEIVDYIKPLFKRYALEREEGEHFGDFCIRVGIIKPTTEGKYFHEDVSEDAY
Sequence (P39692 1-1035): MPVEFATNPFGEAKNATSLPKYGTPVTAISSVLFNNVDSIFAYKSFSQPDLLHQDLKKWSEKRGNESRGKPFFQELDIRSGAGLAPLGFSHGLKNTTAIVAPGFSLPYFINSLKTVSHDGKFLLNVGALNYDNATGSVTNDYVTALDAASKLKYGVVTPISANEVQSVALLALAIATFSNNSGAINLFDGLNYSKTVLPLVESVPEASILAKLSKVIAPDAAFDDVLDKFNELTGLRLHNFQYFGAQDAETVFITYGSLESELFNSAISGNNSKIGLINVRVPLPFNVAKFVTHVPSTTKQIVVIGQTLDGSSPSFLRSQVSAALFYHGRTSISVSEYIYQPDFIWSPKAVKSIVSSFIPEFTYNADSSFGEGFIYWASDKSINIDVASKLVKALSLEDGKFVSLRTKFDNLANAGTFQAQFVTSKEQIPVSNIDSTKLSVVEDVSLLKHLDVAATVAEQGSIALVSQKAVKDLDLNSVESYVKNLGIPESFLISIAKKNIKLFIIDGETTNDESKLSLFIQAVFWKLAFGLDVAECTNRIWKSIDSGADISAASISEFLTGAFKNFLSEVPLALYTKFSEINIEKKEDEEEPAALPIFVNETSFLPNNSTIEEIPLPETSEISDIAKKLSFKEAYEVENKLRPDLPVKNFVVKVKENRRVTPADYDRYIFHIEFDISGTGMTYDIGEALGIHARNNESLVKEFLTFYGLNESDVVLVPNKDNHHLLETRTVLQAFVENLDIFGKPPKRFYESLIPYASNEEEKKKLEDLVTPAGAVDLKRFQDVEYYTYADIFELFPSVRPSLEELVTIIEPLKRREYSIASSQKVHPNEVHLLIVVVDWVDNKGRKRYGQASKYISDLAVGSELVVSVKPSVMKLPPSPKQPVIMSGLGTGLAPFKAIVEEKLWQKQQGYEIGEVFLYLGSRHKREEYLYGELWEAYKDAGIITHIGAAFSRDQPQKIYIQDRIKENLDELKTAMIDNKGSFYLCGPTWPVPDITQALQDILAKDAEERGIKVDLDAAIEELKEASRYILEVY
Experiment: Effects of metal ions, inhibitors and reducing agents on enzyme activity
Type: biochemical
Settings: inhibitor 1.0 mM, 25° C., 30 minutes
Attribute Measured: effect of inhibitors on catalytic activity

| Compound | Measurement |
| --- | --- |
| O=S(=O)(O)c1cc[c]([Hg][Cl])cc1 | completely inhibited |
| CCN1C(=O)C=CC1=O [NEM, N-ethylmaleimide] | partially |
| O=S(=O)(F)Cc1ccccc1 [PMSF, phenylmethylsulfonyl fluoride] | partially |
| O=C(O)c1cc[c]([Hg][Cl])cc1 [PCMB, p-chloromercuribenzoate] | completely inhibited |
